Origin of measurements: ChEMBL document CHEMBL1201862

System: SNB-19
Test: NCI tumour cell line growth inhibition, 48 h
Calls of active or inactive are those of the source. Rule as the data show it: active = GI50 up to about 1.1 µM and inactive = higher.
OBSERVED_PROPERTY: GI50

Please review the entries below; each comes with its answer.
COC(=O)C(=O)C(C(=O)C(=O)Nc1ccccc1C(N)=O)c1nc2ccc([N+](=O)[O-])cc2nc1O (stereo unspecified)    > 100 µM (inactive)
O=C1CCCC2(c3ccccc3)Nc3ccccc3N12 (stereo unspecified)    > 100 µM (inactive)
C[C@H]1CC[C@H](NC(=O)N(CCCl)N=O)CC1    38.7 µM (inactive)
Nc1ncn(C2OC(COP(=O)(O)O)C(O)C2O)c(=O)n1 (stereo unspecified)    > 100 µM (inactive)
CC(=O)OCC12C(OC(C)=O)C[C@@H](C)C3(CC(c4ccoc4)OC3=O)C1CCC(O)C21CO1 (stereo partly specified)    > 100 µM (inactive)

[Q] Consider the molecule shown here: COc1ccc(-c2c(-c3ccccc3)c(C)nc3nc(SC)nc(SC)c23)cc1OC What is its recorded GI50?
[A] 26.7 µM (inactive)

[Q] // returns reported GI50 for input CC(C)CCCC(C)[C@H]1CC[C@H]2n3c(nnc3-c3ccccc3)CCC[C@]12C (stereo partly specified)
[A] 11.8 µM (inactive)

[Q] Quick one: GI50 of C[C@@H]1CC[C@H]2C(C)(C)[C@H]3C[C@@]12CC[C@@]3(C)O [CEDROL] ?
[A] > 100 µM (inactive)

[Q] Need GI50, item Cc1cc(Cl)ccc1Nc1nc2c(s1)C(=O)c1ccccc1C2=O
[A] 4.75 µM (inactive)

[Q] Param item = COc1cc(C2[C@H]3C(=O)N(c4ccc(Cc5ccc(N6C(=O)[C@@H]7ON(c8ccccc8)C(c8cc(OC)c(OC)c(OC)c8)[C@@H]7C6=O)cc5)cc4)C(=O)[C@H]3ON2c2ccccc2)cc(OC)c1OC (stereo partly specified) ; retrieve measured GI50.
[A] > 100 µM (inactive)

[Q] // GI50 lookup, key: CCc1nc(N)nc(N)c1-c1ccc(Cl)cc1 [PYRIMETHAMINE]
[A] 32.8 µM (inactive)

[Q] If you can, please state the reported GI50 value of Nc1nn2c(=O)c3ccccc3nc2s1 .
[A] > 100 µM (inactive)

[Q] Item under review: N#CSC#CCCC#CSC#N . Reported GI50?
[A] 15.5 µM (inactive)

[Q] Requested read-out: GI50. Entry: C=CCNC(=O)/C=C\C(=O)O
[A] > 100 µM (inactive)

[Q] What GI50 value was documented for this molecule, O=NN(CCCl)C(=O)NC1CCC(=O)NC1=O (stereo unspecified) ?
[A] 112 µM (inactive)

[Q] Query (molecule): CCN1CCC(O)(c2ccc(Cl)cc2)C(C(=O)c2ccc(Cl)cc2)C1 (stereo unspecified) ; field requested: GI50
[A] > 100 µM (inactive)

[Q] Look up GI50: CCc1cc2c(oc3c4ccccc4ccc23)c(=O)[nH]1
[A] > 10 µM (inactive)

[Q] Reported GI50, molecule C=CC[C@H]1[C@H](O[Si](C)(C)C(C)(C)C)C=CC(=O)[C@@H]1CC(=O)N(Cc1ccccc1)Cc1ccccc1 : ____
[A] 29.6 µM (inactive)

[Q] Recorded GI50 for C=CCOC1(CC=C)C(=O)OC2C(O)COC21O (stereo unspecified) , please?
[A] > 100 µM (inactive)
